# assay.system: HLA-A*0202 (human)
# protocol.text: competition with 125I probe peptide for purified HLA
# condition: remark: other sources report otherwise
assay.endpoint: IC50 (nM)
Please reply with the bare figure in nM and do not write the unit itself.

stdin: Returns the measured IC50 for the input binder. Input: QLFEDNYAL [Her2/neu.106 (9-mer) …]
stdout: 226

All values here come from patent US20040018971A1.
